meta.source: the supplement of paper PMC11451515

- System: NOMO1
- Protocol notes: cell viability relative to DMSO control; higher = less cytotoxic
- Experimental conditions: HPLM + 10% dialyzed FBS; 48 h; 46.1 µM
// returns false (0) unless cell viability is strictly below 40%, in which case true (1)

Previously resolved entries follow.
- Smiles str: "CNCC(O)C(O)C(O)C(O)CO.O=C(O)c1ccc(-c2cc3cccnc3c(-c3ccc4nonc4c3)n2)cc1"
  Class name: "false (0)"
- Smiles str: "CCN1C[C@]2(OC(=O)c3ccccc3NC(C)=O)CC[C@H](OC)[C@@]34[C@@H]2C[C@@H]([C@@H]13)[C@@]1(O)C[C@H](OC)[C@H]2C[C@@H]4[C@]1(O)[C@H]2OC"
  Class name: "false (0)"
- Smiles str: "O=C1N\\2CCC3=C([NH]C4=C3C=CC=C4)C2=N/C5=CC=CC=C15"
  Class name: "false (0)"

Query block: Hi there! Is cell viability for Cc1cn(CCN2CCN(c3ccccc3-c3cc(C#N)cc(C(=O)NCCCN4CCCC4)c3)CC2)c2ccccc12 below 40%, do you know?
Result block: true (1)

Query block: Hi there! Is cell viability for COc1cc2ncnc(Nc3cccc(Br)c3)c2cc1OC below 40%, do you know?
Result block: false (0)

====

- Test system: SEM cells
- Protocol notes: cell viability relative to DMSO control; higher = less cytotoxic
- Experimental conditions: HPLM + 10% dialyzed FBS; 48 h; 0.00234 µM
Metric name: cell viability (%)
One number for each entry, in %.

Illustrative cases are given below, each with its answer.
- Compound: "CCN1C[C@]2(OC(=O)c3ccccc3NC(C)=O)CC[C@H](OC)[C@@]34[C@@H]2C[C@@H]([C@@H]13)[C@@]1(O)C[C@H](OC)[C@H]2C[C@@H]4[C@]1(O)[C@H]2OC"
  Metric name: "cell viability"
  Readout number: 100
- Compound: "O=C(CCCCCCC(=O)Nc1ccccc1)NO"
  Metric name: "cell viability"
  Readout number: 112
- Compound: "CC(=O)O[C@@]12CO[C@@H]1C[C@H](O)[C@]3(C)[C@@H]2[C@H](OC(=O)C4=CC=CC=C4)[C@]5(O)C[C@H](OC(=O)C(O)[C@@H](NC(=O)OC(C)(C)C)C6=CC=CC=C6)C(=C(/[C@@H](O)C3=O)C5(C)C)/C (some centres not stated)"
  Metric name: "cell viability"
  Readout number: 25.1
- Compound: "CC1COC2=C3N1\\C=C(C(O)=O)/C(=O)C3=CC(=C2N4CCN(C)CC4)F (configuration not stated)"
  Metric name: "cell viability"
  Readout number: 128
- Compound: "C#Cc1cccc(Nc2ncnc3cc(OC)c(OCCCCCCC(=O)NO)cc23)c1"
  Metric name: "cell viability"
  Readout number: 119

Each of the following entries comes with a recorded value; kindly state cell viability for each.
1. C[S+]([O-])c1ccc(-c2nc(-c3ccc(F)cc3)c(-c3ccncc3)[nH]2)cc1 (configuration not stated)
2. COc1ccc2c(c1OC)CN1CCc3cc4c(cc3C1C2)OCO4 (configuration not stated)

Result block:
84.2
80.1

====

- Test system: SEM cells
- Protocol notes: cell viability relative to DMSO control; higher = less cytotoxic
- Experimental conditions: HPLM + 10% dialyzed FBS; 48 h; 0.00702 µM
// returns NO unless cell viability is strictly below 90%, in which case YES

Previously resolved entries follow.
- Molecule: "O=C1CCc2ccc(OCCCCN3CCN(c4cccc(Cl)c4Cl)CC3)cc2N1"
  System tested: "SEM cells"
  Class name: "NO"
- Molecule: "CN(C)CCCNC(=O)c1ccc(-c2cc(O)c3ncccc3c2)cc1"
  System tested: "SEM cells"
  Class name: "NO"
- Molecule: "CN[S+](=O)([O-])CCc1ccc2[nH]cc(C3CCN(C)CC3)c2c1"
  System tested: "SEM cells"
  Class name: "YES"

Query block: Hi there! Is cell viability for CCNc1cc(NC2CCC(O)CC2)nc(Nc2ccc3c(ccn3Cc3ccccc3)c2)n1 (stereo not given) below 90%, do you know?
Result block: NO
